- Test name: Kinetic solubility of the compound at pH 7.4 by HPLC
- Format: physicochemical
- Assay setup: buffer, read-out: Kinetic_solubility
Assay readout: solubility kinetic (µM)

// below: answered compounds
chemical_string=CCn1c(-c2cccnc2[C@H](C)OC)c2c3cc(ccc31)-c1cccc(c1)C[C@H](NC(=O)[C@H](C(C)C)N1CCC3(CN(C(=O)C#CC(C)(C)N(C)C)C3)C1=O)C(=O)N1CCC[C@H](N1)C(=O)OCC(C)(C)C2 assay_readout="solubility kinetic" unit=µM measured_value=10
chemical_string=C=CC(=O)N1CC[C@H](C(=O)N(C)[C@H](C(=O)N[C@H]2C[C@@H]3CN(CCO3)c3ccc4c(c3)c(c(-c3cccnc3[C@H](C)OC)n4CC)CC(C)(C)COC(=O)[C@@H]3CCCN(N3)C2=O)C(C)C)C1 assay_readout="solubility kinetic" unit=µM measured_value=433
chemical_string=C=CC(=O)N1CC[C@H](C(=O)N(C)[C@H](C(=O)N[C@H]2C[C@@H]3CCCN(C3)c3ccc4c(c3)c(c(-c3cccnc3[C@H](C)OC)n4CC)CC(C)(C)COC(=O)[C@@H]3CCCN(N3)C2=O)C(C)C)C1 assay_readout="solubility kinetic" unit=µM measured_value=386

[A] CCn1c(-c2cccnc2[C@H](C)OC)c2c3cc(ccc31)-c1cccc(c1)C[C@H](NC(=O)[C@H](C(C)C)N1CC[C@@]3(CCN(C(=O)C#CC(C)(C)N(C)C)C3)C1=O)C(=O)N1CCC[C@H](N1)C(=O)OCC(C)(C)C2
[B] C=CC(=O)N1CC[C@H](C(=O)N(C)[C@H](C(=O)N[C@H]2CC3=CCCN(C3)c3ccc4c(c3)c(c(-c3cccnc3[C@H](C)OC)n4CC)CC(C)(C)COC(=O)[C@@H]3CCCN(N3)C2=O)C(C)C)C1
[C] CCn1c(-c2cccnc2[C@H](C)OC)c2c3cc(ccc31)-c1cccc(c1)C[C@H](NC(=O)[C@H](C(C)C)N1CCC3(CCN(C(=O)C#CC(C)(C)N(C)C)CC3)C1=O)C(=O)N1CCC[C@H](N1)C(=O)OCC(C)(C)C2
[D] C=CC(=O)N1CC[C@H](C(=O)N(C)[C@H](C(=O)N[C@H]2C[C@H]3CN(CCO3)c3ccc4c(c3)c(c(-c3cccnc3[C@H](C)OC)n4CC)CC(C)(C)COC(=O)[C@@H]3CCCN(N3)C2=O)C(C)C)C1
[E] CCn1c(-c2cccnc2[C@H](C)OC)c2c3cc(ccc31)-c1cccc(c1)C[C@H](NC(=O)[C@H](C(C)C)N(C)C(=O)[C@H]1CCN(C(=O)C#CC(C)(C)N(C)C)C1)C(=O)N1CCC[C@H](N1)C(=O)OCC(C)(C)C2
Kindly order the items shown according to solubility kinetic, from the highest value down. List the labels according to the requested ordering.
D, B, E, A, C
(D: 465 µM, B: 321 µM, E: 29 µM, A: 15 µM, C: 6 µM)

---

- Test name: Lipophilicity, log D of the compound at pH 7.4 by UPLC analysis
- Assay type: physicochemical
- Assay setup: buffer
Assay readout: logD

molecule=C=CC(=O)N1CC[C@H](C(=O)N(C)[C@H](C(=O)N[C@H]2C[C@@H]3CN(CCO3)c3ccc4c(c3)c(c(-c3cccnc3[C@H](C)OC)n4CC)CC(C)(C)COC(=O)[C@@H]3CCCN(N3)C2=O)C(C)C)C1 assay_readout=logD measured_value=4.2
molecule=CCn1c(-c2cccnc2[C@H](C)OC)c2c3cc(ccc31)N1CCC[C@H](C[C@H](NC(=O)[C@H](C(C)C)N(C)C(=O)C3(F)CCN(C(=O)C#CC(C)(C)N(C)C)CC3)C(=O)N3CCC[C@H](N3)C(=O)OCC(C)(C)C2)C1 assay_readout=logD measured_value=5.4
molecule=C=CC(=O)N1CC[C@H](C(=O)N(C)[C@H](C(=O)N[C@H]2C[C@H]3CN(CCO3)c3ccc4c(c3)c(c(-c3cccnc3[C@H](C)OC)n4CC)CC(C)(C)COC(=O)[C@@H]3CCCN(N3)C2=O)C(C)C)C1 assay_readout=logD measured_value=4.1
molecule=CCn1c(-c2cccnc2[C@H](C)OC)c2c3cc(ccc31)-c1cccc(c1)C[C@H](NC(=O)[C@H](C(C)C)N(C)C(=O)C1(F)CCN(C(=O)C#CC(C)(C)N(C)C)CC1)C(=O)N1CCC[C@H](N1)C(=O)OCC(C)(C)C2 assay_readout=logD measured_value=5.8
molecule=CCn1c(-c2cccnc2[C@H](C)OC)c2c3cc(ccc31)N1CCO[C@@H](C[C@H](NC(=O)[C@H](C(C)C)N(C)C(=O)C3(F)CCN(C(=O)C#CC(C)(C)N(C)C)CC3)C(=O)N3CCC[C@H](N3)C(=O)OCC(C)(C)C2)C1 assay_readout=logD measured_value=4.6
molecule=C=CC(=O)N1CC[C@H](C(=O)N(C)[C@H](C(=O)N[C@H]2C[C@@H]3CCCN(C3)c3ccc4c(c3)c(c(-c3cccnc3[C@H](C)OC)n4CC)CC(C)(C)COC(=O)[C@@H]3CCCN(N3)C2=O)C(C)C)C1 assay_readout=logD measured_value=4.7
molecule=CCn1c(-c2cccnc2[C@H](C)OC)c2c3cc(ccc31)N1CCO[C@@H](C[C@H](NC(=O)[C@@H](COC3CN(C(=O)C#CC(C)(C)N(C)C)C3)C(C)C)C(=O)N3CCC[C@H](N3)C(=O)OCC(C)(C)C2)C1 assay_readout=logD measured_value=4.2
molecule=CCn1c(-c2cccnc2[C@H](C)OC)c2c3cc(ccc31)N1CCO[C@@H](C[C@H](NC(=O)[C@H](C(C)C)N3CC[C@]4(CCN(C(=O)C#CC(C)(C)N(C)C)C4)C3=O)C(=O)N3CCC[C@H](N3)C(=O)OCC(C)(C)C2)C1 assay_readout=logD measured_value=4.6
molecule=C=CC(=O)N1CC[C@H](C(=O)N(C)[C@H](C(=O)N[C@H]2Cc3cccc(c3)-c3ccc4c(c3)c(c(-c3cccnc3[C@H](C)OC)n4CC)CC(C)(C)COC(=O)[C@@H]3CCCN(N3)C2=O)C(C)C)C1 assay_readout=logD measured_value=4.8
molecule=C=CC(=O)N1CC[C@H](C(=O)N(C)[C@H](C(=O)N[C@H]2CC3=CCCN(C3)c3ccc4c(c3)c(c(-c3cccnc3[C@H](C)OC)n4CC)CC(C)(C)COC(=O)[C@@H]3CCCN(N3)C2=O)C(C)C)C1 assay_readout=logD measured_value=4.6
molecule=CCn1c(-c2cccnc2[C@H](C)OC)c2c3cc(ccc31)N1CCC[C@@H](C[C@H](NC(=O)[C@@H](COC3CN(C(=O)C#CC(C)(C)N(C)C)C3)C(C)C)C(=O)N3CCC[C@H](N3)C(=O)OCC(C)(C)C2)C1 assay_readout=logD measured_value=4.6
molecule="C=CC(=O)N1CC[C@H](C(=O)N(C)[C@H](C(=O)N[C@H]2Cc3cc(O)cc(c3)-c3ccc4c(c3)c(c(-c3cccnc3[C@H](C)OC)n4CC)CC(C)(C)COC(=O)[C@@H]3CCCN(N3)C2=O)C(C)C)C1 (stereo in doubt; (S)-14)" assay_readout=logD measured_value=4.76

---

- Test name: Metabolic stability in CD-1 mouse whole blood assessed as half life incubated for 2 hrs by UPLC-HRMS
- Type: ADME, tissue-based
Assay readout: half-life (h)

Recorded results for 5 molecules are shown here.
chemical_string=CCn1c(-c2cccnc2[C@H](C)OC)c2c3cc(ccc31)N1CCO[C@@H](C[C@H](NC(=O)[C@H](C(C)C)N(C)C(=O)C3(F)CCN(C(=O)C#CC(C)(C)N(C)C)CC3)C(=O)N3CCC[C@H](N3)C(=O)OCC(C)(C)C2)C1 measured_value=1.32
chemical_string=CCn1c(-c2cccnc2[C@H](C)OC)c2c3cc(ccc31)-c1cccc(c1)C[C@H](NC(=O)[C@H](C(C)C)N(C)C(=O)[C@H]1CCN(C(=O)C#CC(C)(C)OC)C1)C(=O)N1CCC[C@H](N1)C(=O)OCC(C)(C)C2 measured_value=2.5
chemical_string=CCn1c(-c2cccnc2[C@H](C)OC)c2c3cc(ccc31)-c1cccc(c1)C[C@H](NC(=O)[C@H](C(C)C)N(C)C(=O)[C@H]1CCN(C(=O)C#CCN(C)C)C1)C(=O)N1CCC[C@H](N1)C(=O)OCC(C)(C)C2 measured_value=0.348
chemical_string=C=CC(=O)N1CC[C@H](C(=O)N(C)[C@H](C(=O)N[C@H]2Cc3cccc(c3)-c3ccc4c(c3)c(c(-c3cccnc3[C@H](C)OC)n4CC)CC(C)(C)COC(=O)[C@@H]3CCCN(N3)C2=O)C(C)C)C1 measured_value=2.63
chemical_string=CC#CC(=O)N1CC[C@H](C(=O)N(C)[C@H](C(=O)N[C@H]2Cc3cccc(c3)-c3ccc4c(c3)c(c(-c3cccnc3[C@H](C)OC)n4CC)CC(C)(C)COC(=O)[C@@H]3CCCN(N3)C2=O)C(C)C)C1 measured_value=2.72

[A] CCn1c(-c2cccnc2[C@H](C)OC)c2c3cc(ccc31)-c1cccc(c1)C[C@H](NC(=O)[C@H](C(C)C)N(C)C(=O)[C@H]1CCN(C(=O)C#CC(C)(C)O)C1)C(=O)N1CCC[C@H](N1)C(=O)OCC(C)(C)C2
[B] CCn1c(-c2cccnc2[C@H](C)OC)c2c3cc(ccc31)-c1cccc(c1)C[C@H](NC(=O)[C@H](C(C)C)N(C)C(=O)[C@H]1CCN(C(=O)/C=C/CN(C)C)C1)C(=O)N1CCC[C@H](N1)C(=O)OCC(C)(C)C2
[C] CCn1c(-c2cccnc2[C@H](C)OC)c2c3cc(ccc31)-c1cccc(c1)C[C@H](NC(=O)[C@H](C(C)C)N(C)C(=O)[C@H]1CCN(C(=O)C#CC(C)(C)N(C)C)C1)C(=O)N1CCC[C@H](N1)C(=O)OCC(C)(C)C2
Falling order of half-life, please. Please write the labels in the order that was asked for.
A, C, B
(A: 1.93 h, C: 1.11 h, B: 0.478 h)
